Catalogue of combination Emax values
system: GCIY (Gastric Carcinoma); experiment: combination Emax (second highest fraction inhibited in the dose matrix, 72 h); higher = more inhibition; extreme values may be limits of the assay

Please review the following examples before continuing.
• Cc1c2c(nn1C)CSCc1cc(n(C)n1)CSc1cc(c3ccccc3c1)OCCCc1c(C(=O)O)n(C)c3c-2c(Cl)ccc13 [AZD5991] + CC(=O)O[C@H]1C(=O)[C@@]2(C)[C@H]([C@H](OC(=O)c3ccccc3)[C@]3(O)C[C@H](OC(=O)[C@H](O)[C@@H](NC(=O)c4ccccc4)c4ccccc4)C(C)=C1C3(C)C)[C@]1(OC(C)=O)CO[C@@H]1C[C@@H]2O [Paclitaxel] (first compound max 1 µM, 7x7, partner max 3 µM) = 0.686
• CC1(C)CCC(CN2CCN(c3ccc(C(=O)NS(=O)(=O)c4ccc(NCC5CCOCC5)c([N+](=O)[O-])c4)c(Oc4cnc5[nH]ccc5c4)c3)CC2)=C(c2ccc(Cl)cc2)C1 [Venetoclax] + C1CN(CCC1(C(=O)N[C@@H](CCO)C2=CC=C(C=C2)Cl)N)C3=NC=NC4=C3C=CN4 [Capivasertib] (first compound max 1 µM, 7x7, partner max 3 µM) = 0.442

Proceed to the following item.
GET /values?item= Cc1c2c(nn1C)CSCc1cc(n(C)n1)CSc1cc(c3ccccc3c1)OCCCc1c(C(=O)O)n(C)c3c-2c(Cl)ccc13 [AZD5991] + C=CCn1c(=O)c2cnc(Nc3ccc(N4CCN(C)CC4)cc3)nc2n1-c1cccc(C(C)(C)O)n1 [AZD1775] (first compound max 1 µM, partner max 1 µM) &system= GCIY (Gastric Carcinoma) returns combination Emax: 0.545

---

Catalogue of combination Emax values
test system: KNS-62 (Squamous Cell Lung Carcinoma); experiment: combination Emax (second highest fraction inhibited in the dose matrix, 72 h); higher = more inhibition; extreme values may be limits of the assay
Enter a number only.

Please review the following examples before continuing.
- CN(CCO)CC[C@H](CSc1ccccc1)Nc1ccc(S(=O)(=O)NC(=O)c2ccc(N3CCC([C@@H](O)c4ccccc4-c4ccc(Cl)cc4)CC3)cc2)cc1S(=O)(=O)C(F)(F)F [AZD4320] + CS(=O)(=O)CCNCc1ccc(-c2ccc3ncnc(Nc4ccc(OCc5cccc(F)c5)c(Cl)c4)c3c2)o1 [Lapatinib] (first compound max 1 µM, 7x7, partner max 10 µM): 0.291
- NC1(C(=O)N[C@@H](CCO)c2ccc(Cl)cc2)CCN(c2ncnc3[nH]ccc23)CC1 [Capivasertib] + Cn1cnc2c(F)c(Nc3ccc(Br)cc3Cl)c(C(=O)NOCCO)cc21 [Selumetinib] (first compound max 10 µM, 7x7, partner max 10 µM): 0.914

combination Emax for CC1(C)CCC(CN2CCN(c3ccc(C(=O)NS(=O)(=O)c4ccc(NCC5CCOCC5)c([N+](=O)[O-])c4)c(Oc4cnc5[nH]ccc5c4)c3)CC2)=C(c2ccc(Cl)cc2)C1 [Venetoclax] + Cc1cc2ncnn2cc1Nc1ncc2c(n1)n(C1CCOCC1)c(=O)n2C [AZD7648] (first compound max 1 µM, 7x7, partner max 10 µM) is 0.219

---

tested on: CAL-85-1 (Breast Carcinoma); experiment: Bliss excess, mean over the matrix (fraction); higher = more synergy;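 further: after 72 h of two-drug dosing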
quantity_name: Bliss excess

Please review the following examples before continuing.
- CCN(CCO)CCCOc1ccc2c(Nc3cc(CC(=O)Nc4cccc(F)c4)[nH]n3)ncnc2c1 [AZD2811] + C[C@@H]1COCCN1C2=NC(=NC(=C2)C3(CC3)[S@](=N)(=O)C)C4=C5C=CNC5=NC=C4 [AZD6738] (first compound max 1 µM, 7x7, partner max 10 µM): 0.0098
- O=C(c1cc(Cc2n[nH]c(=O)c3ccccc23)ccc1F)N1CCN(C(=O)C2CC2)CC1 [Olaparib] + COc1nnc2ccc(N3CCC(c4ccc(OCCN5CCN(C)C(=O)[C@H]5C)cc4)CC3)nn12 [AZD5153] (first compound max 10 µM, 7x7, partner max 1 µM): -0.026
- CN(C)CCCOc1ccc(-c2ccc3ncc4c(c3c2)n(C2CCOCC2)c(=O)n4C)cn1 [AZD0156] + O=C(c1cc(Cc2n[nH]c(=O)c3ccccc23)ccc1F)N1CCN(C(=O)C2CC2)CC1 [Olaparib] (first compound max 3 µM, partner max 3 µM): -0.039

Bliss excess for CN(C)CCCOc1ccc(-c2ccc3ncc4c(c3c2)n(C2CCOCC2)c(=O)n4C)cn1 [AZD0156] + C[C@@H]1COCCN1C2=NC(=NC(=C2)C3(CC3)[S@](=N)(=O)C)C4=C5C=CNC5=NC=C4 [AZD6738] (first compound max 1 µM, 7x7, partner max 10 µM) is 0.0042

Bliss excess for CN(CCO)CC[C@H](CSc1ccccc1)Nc1ccc(S(=O)(=O)NC(=O)c2ccc(N3CCC([C@@H](O)c4ccccc4-c4ccc(Cl)cc4)CC3)cc2)cc1S(=O)(=O)C(F)(F)F [AZD4320] + CC(=O)O[C@H]1C(=O)[C@@]2(C)[C@H]([C@H](OC(=O)c3ccccc3)[C@]3(O)C[C@H](OC(=O)[C@H](O)[C@@H](NC(=O)c4ccccc4)c4ccccc4)C(C)=C1C3(C)C)[C@]1(OC(C)=O)CO[C@@H]1C[C@@H]2O [Paclitaxel] (first compound max 1 µM, 7x7, partner max 3 µM) is 0.0773

Bliss excess for CN(CCO)CC[C@H](CSc1ccccc1)Nc1ccc(S(=O)(=O)NC(=O)c2ccc(N3CCC([C@@H](O)c4ccccc4-c4ccc(Cl)cc4)CC3)cc2)cc1S(=O)(=O)C(F)(F)F [AZD4320] + C[C@@H]1COCCN1C2=NC(=NC(=C2)C3(CC3)[S@](=N)(=O)C)C4=C5C=CNC5=NC=C4 [AZD6738] (first compound max 1 µM, 7x7, partner max 10 µM) is -0.0048

Bliss excess for Cn1cnc2c(F)c(Nc3ccc(Br)cc3Cl)c(C(=O)NOCCO)cc21 [Selumetinib] + CCN(CCO)CCCOc1ccc2c(Nc3cc(CC(=O)Nc4cccc(F)c4)[nH]n3)ncnc2c1 [AZD2811] (first compound max 10 µM, 7x7, partner max 1 µM) is 0.0353

meta.source: the supplement of paper PMC11061612
